Data origin, for the record: the RNAGym collection of RNA variant scans (doi:10.7554/elife.80360)

Overview of recorded self-cleavage for various variants
B1: HDV Ribozyme (parent)
chain: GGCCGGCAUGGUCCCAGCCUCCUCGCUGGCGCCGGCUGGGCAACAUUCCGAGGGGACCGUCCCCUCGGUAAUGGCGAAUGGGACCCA

- Variants of: B1
- assay method text: self-cleavage, relative activity (ratio to wild type); higher = more cleavage; co-transcriptional
Output spec: single numeric token, no unit.

Reference set (10 entries):
[
  {
    "sequence input": "GGCCGGCAUGGUCCCAGCCUCCUCGCUGGCGCCGGCUGGGCAACAUUUCGAGGGGACCGUCCCCUCGGUUAUGGCGAAUGGGACCCA [C48U A70U]",
    "self-cleavage": 1.07
  },
  {
    "sequence input": "GGCCGGCAUGGUCCCAGCCUCCUCGCUGGCGCCGGCUGGGCAACAUUCCGAGGGCACCAUCCCCUCGGUAAUGGCGAAUGGGACCCA [G55C G59A]",
    "self-cleavage": 1.06
  },
  {
    "sequence input": "GGCCGGCGUGGUCCCAGCCUCCUCGCUGGCGCCGGCUGGGCAACAUUCCGAGGGGACCGUCCCCUCGGUAAUGGCGAAUGGGACCCA [A8G]",
    "self-cleavage": 1.02
  },
  {
    "sequence input": "GGCCGGCAUGGUCCCAGCCUCCUCGCUGGCGUCGGCAGGGCAACAUUCCGAGGGGACCGUCCCCUCGGUAAUGGCGAAUGGGACCCA [C32U U37A]",
    "self-cleavage": 0.252
  },
  {
    "sequence input": "GGCUGGCAUGGUCCCAGCCUCCUCGCUGGCGCCGGCUGGGCAACAUUCCGAGGGGAUCGUCCCCUCGGUAAUGGCGAAUGGGACCCA [C4U C57U]",
    "self-cleavage": 0.656
  },
  {
    "sequence input": "GGCCGGCAUGGUCCCAGCCUCCUCGCUGGCGCCGGCUGGGCCACAUUCCGAGGGGACCGUCCCCUCGGUUAUGGCGAAUGGGACCCA [A42C A70U]",
    "self-cleavage": 0.312
  },
  {
    "sequence input": "GGGCGGCAUGGUCCCAGCCUCCUUGCUGGCGCCGGCUGGGCAACAUUCCGAGGGGACCGUCCCCUCGGUAAUGGCGAAUGGGACCCA [C3G C24U]",
    "self-cleavage": 0.196
  },
  {
    "sequence input": "GGCCGGCAUGGUCCCAGCCUCCUCGCUGCCGCCGGGUGGGCAACAUUCCGAGGGGACCGUCCCCUCGGUAAUGGCGAAUGGGACCCA [G29C C36G]",
    "self-cleavage": 0.0536
  },
  {
    "sequence input": "GGCCAGCAUGGUCCAAGCCUCCUCGCUGGCGCCGGCUGGGCAACAUUCCGAGGGGACCGUCCCCUCGGUAAUGGCGAAUGGGACCCA [G5A C15A]",
    "self-cleavage": 0.162
  },
  {
    "sequence input": "GGCCGGCAUGGUCCCAGCCUCCUCGCUGGCGCCGCCUGGGCAACAUUCCGAGGGGACCGUCCCCUCGGUAAUGGCGAACGGGACCCA [G35C U79C]",
    "self-cleavage": 0.132
  }
]

[in] Can you share its self-cleavage? I mean this variant: GGCCGGCAUAGUCCCAGCCUCGUCGCUGGCGCCGGCUGGGCAACAUUCCGAGGGGACCGUCCCCUCGGUAAUGGCGAAUGGGACCCA [G10A C22G]
[out] 0.0171

[in] Can you share its self-cleavage? I mean this variant: GGCCGGCAUGGUCCCAGCCUCCUCGCUGGCGCCGGCUGGGCAACAUUCCGAGGGGACCGUCCCCUCGGUAAUGGCGUACGGGACCCA [A77U U79C]
[out] 0.0811

[in] Can you share its self-cleavage? I mean this variant: GGCCGGCAUGGUCCCAGCCUGCUCGCCGGCGCCGGCUGGGCAACAUUCCGAGGGGACCGUCCCCUCGGUAAUGGCGAAUGGGACCCA [C21G U27C]
[out] 0.217

[in] Can you share its self-cleavage? I mean this variant: GGCCGGCAUGGUCCCAGCCUCCUCACUGGCGCCGGCUGGGCAACAUUCCGAGGGGUCCGUCCCCUCGGUAAUGGCGAAUGGGACCCA [G25A A56U]
[out] 0.111

[in] Can you share its self-cleavage? I mean this variant: GGCCGGCAUGGUCUCAGCCUCCUCGCUGGCGCCGGCUGGGCAUCAUUCCGAGGGGACCGUCCCCUCGGUAAUGGCGAAUGGGACCCA [C14U A43U]
[out] 0.443
